Attribution: the supplement of paper PMC13380429

Entries and their cell viability values follow.
- System: Caco-2
- methodDescription: cell viability relative to DMSO; higher = less toxic
- experimentalSetup: 72 h; 100 nM
State just the number; it will be interpreted in %.

Field: example entries. Status: answers known.
compound | scaleUnit | cell viability
c1ccc2sc(SN3CCOCC3)nc2c1 [N-oxydiethylenebenzothiazole-2-sulfenamide] | % | 92.5
NNc1nncc2ccccc12 [hydralazine] | % | 91.4
CC(C)C(=O)OC[C@@]1(N=[N+]=[N-])O[C@@H](n2ccc(N)nc2=O)[C@H](OC(=O)C(C)C)[C@@H]1OC(=O)C(C)C [balapiravir] | % | 100
CCC(=O)O[C@@](Cc1ccccc1)(c1ccccc1)[C@@H](C)CN(C)C [levopropoxyphene] | % | 98.3

(Q) // cell viability lookup, key: COC(=O)N[C@H](C(=O)N[C@@H](Cc1ccccc1)[C@@H](O)CN(Cc1ccc(-c2ccccn2)cc1)NC(=O)[C@@H](NC(=O)OC)C(C)(C)C)C(C)(C)C [atazanavir]
(A) 92.9

(Q) Record request: cell viability value, item CC(C)OC(=O)CNC(=O)[C@H](CS)NC(=O)CC[C@H](N)C(=O)O [glutathione-monoisopropyl-ester]
(A) 96.2

(Q) # query: cell viability of entry Clc1cccc2c1CN(C1=NCCN1)C2
(A) 95.6

(Q) Consider the compound CN(C)C(=O)CCSC(SCCC(=O)O)c1cccc(/C=C/c2ccc3ccc(Cl)cc3n2)c1 (stereo unspecified) [MK-571] and give its measured cell viability.
(A) 95

(Q) # cell viability lookup, item Oc1ccnc2cc(Cl)ccc12 [chloroxoquinoline]
(A) 94.7

(Q) I'd like to know its cell viability. The compound in question is CC[C@@H](C)c1ccc(NC(=O)Cn2cnc3c2c(=O)n(C)c(=O)n3C)cc1 (racemic)
(A) 89.8

(Q) Looking for the measured cell viability of Cc1c(NC(=O)c2cc3c(s2)CCCC3)cccc1-c1cn(C)c(=O)c(Nc2ccc(C3C(=O)N(C)CCN3C)cc2)n1 (stereo in doubt) [GDC-0834] , can you help?
(A) 99.9

(Q) What measured cell viability goes with C#Cc1cncc([C@@H]2CCCN2C)c1 [altinicline] ?
(A) 102

(Q) Could you tell me which cell viability is on file for C#C[C@]1(OC(C)=O)CC[C@H]2[C@@H]3CCC4=CC(=NO)CC[C@@H]4[C@H]3CC[C@@]21CC (mixture of isomers) [norgestimate] ?
(A) 73.4

(Q) Report cell viability for COc1cc(C[C@H]2c3cc(OC)c(OC)cc3CCN2C)c(Oc2cc3c(cc2OC)-c2c(OC)c(OC)cc4c2[C@H](C3)N(C)CC4)cc1OC [thaliblastine] please.
(A) 104

(Q) Please report the recorded cell viability for CN(C)CCOC1=Cc2ccccc2Sc2ccc(Cl)cc21 [zotepine] .
(A) 91.9

(Q) Could you tell me which cell viability is on file for CC(C)(C)CC(=O)Nc1c(F)cc(C(=O)/N=c2\sccn2COP(=O)(O)O)cc1F ?
(A) 99.4

* * *

- System: U2OS
- methodDescription: cell viability relative to DMSO; higher = less toxic
- experimentalSetup: 72 h; 1000 nM
// values below are reported cell viability
Answer with a number only, understood to be in %.

molecule | targetEntity | cell viability, %
CCCC(=O)C1CCN(c2ncnc3c2CN(C(=O)c2ccc(-c4ccccc4)cc2)CC3)CC1 | U2OS | 97
CC/C=C(\C(=O)N[C@@H]1C(=O)N2C(C(=O)OCOC(=O)C(C)(C)C)=C(COC(N)=O)CS[C@H]12)c1csc(N)n1 | U2OS | 103
CCOC(=O)[C@]12CC1/C(=N\O)c1ccccc1O2 (some centres undefined) | U2OS | 94.4
CN(C)CC[C@@H](c1ccc(Cl)cc1)c1ccccn1 | U2OS | 95.2
CCC(=O)O[C@@](Cc1ccccc1)(c1ccccc1)[C@@H](C)CN(C)C | U2OS | 98.8
Clc1cccc2c1CN(C1=NCCN1)C2 | U2OS | 102
COc1cccc(CN(C(=O)CC(C)(C)C)[C@H]2C[C@@H](C(=O)N3CCNCC3)N(Cc3ccc4c(c3)OCO4)C2)c1 | U2OS | 97
CN(C)C/C=C/C(=O)Nc1cc2c(Nc3ccc(F)c(Cl)c3)ncnc2cc1O[C@H]1CCOC1 | U2OS | 91.1

(Q) Requested read-out cell viability, target or system U2OS, entry CCOc1nc2cccc(C(=O)O)c2n1Cc1ccc(-c2ccccc2-c2nnn[nH]2)cc1
(A) 99.3

(Q) Query the reported cell viability for U2OS; item: COC(=O)C1=C(C)NC(C)=C(C(=O)OCCCN2CCC(c3ccccc3)(c3ccccc3)CC2)[C@@H]1c1cccc([N+](=O)[O-])c1
(A) 94.3

(Q) What cell viability appears in the records for this molecule with U2OS? O=C(N[C@H]1CN2CCC1CC2)c1ccc2c(c1)OCCO2
(A) 95.3

(Q) Identify the measured cell viability of Cn1c(=O)cc(N2CCC[C@@H](N)C2)n(Cc2cc(F)ccc2C#N)c1=O for U2OS.
(A) 95.1

* * *

- Test system: Caco-2
- methodDescription: cell viability relative to DMSO; higher = less toxic
- experimentalSetup: 72 h; 10 nM
observationType: cell viability (%)
Write the number in % without appending the unit.

(Q) Any idea what cell viability was measured for O=C(O)CNC(=O)C(CS)Cc1ccccc1 (stereo not given) ?
(A) 99

(Q) Consider the compound shown here: CCC(=N\O)/C(C)=C/c1ccc(F)cc1 What is its recorded cell viability?
(A) 91.4

(Q) Quick one: cell viability of O=C(O)C[C@H](O)C(=O)O ?
(A) 91.8

(Q) Look up cell viability: NNc1nncc2ccccc12 [hydralazine]
(A) 105

(Q) Dear colleague, I am looking for the recorded cell viability of the following compound: c1ccc(C(O[C@@H]2CCCN(CCc3ccc4c(c3)OCO4)C2)c2ccccc2)cc1
(A) 91.7

(Q) // returns reported cell viability for input CC(C(=O)O)c1ccc(CC2CCCC2=O)cc1 (stereo not given)
(A) 90

(Q) Value lookup for cell viability; key = CC(C)(C)CC(=O)Nc1c(F)cc(C(=O)/N=c2\sccn2COP(=O)(O)O)cc1F
(A) 109

(Q) Entry C[C@H]1C[C@@H]2[C@H]([C@@H](O)C[C@@]3(C)[C@H]2CC[C@]3(O)C(=O)CO)[C@@]2(C)C=CC(=O)C=C12 : reported cell viability = ?
(A) 108

* * *

This section presents molecules with their documented cell viability values.
- Test system: U2OS
- methodDescription: cell viability relative to DMSO; higher = less toxic
- experimentalSetup: 72 h; 1000 nM
Give the value, in units of %, as a plain number.

molecule | targetEntity | scaleUnit | cell viability
CC(C)(C)CC(=O)Nc1c(F)cc(C(=O)/N=c2\sccn2COP(=O)(O)O)cc1F | U2OS | % | 98.2
Oc1ccc(Cl)cc1 | U2OS | % | 95.4
Cc1cnc(C(=O)O)c[n+]1[O-] | U2OS | % | 98.5
CCc1ccc(C2=CC(C)(C)Sc3ccc(C#Cc4ccc(C(=O)O)cc4)cc32)cc1 | U2OS | % | 104
CC(=O)c1cnc2ccc(-c3cc(Cl)c(O)c(Cl)c3)nc2c1N[C@H]1CC[C@H](CN(C)C)CC1 | U2OS | % | 5.5

(Q) What value of cell viability has been recorded for this entry: CCC(=O)OCC(=O)[C@@]1(OC(=O)CC)[C@@H](C)C[C@H]2[C@@H]3CCC4=CC(=O)C=C[C@]4(C)[C@@]3(F)[C@@H](O)C[C@@]21C [BETAMETHASONE 17,21-DIPROPIONATE]
(A) 97

(Q) Look up cell viability for this molecule: NC(=O)CCCCC1CCSS1 (centres undefined) [lipoamide]
(A) 98.2

(Q) # query: cell viability of entry CCS(=O)(=O)N(Cc1cccnc1)c1cccc(-c2ccc(C#N)cc2)c1
(A) 98.1

(Q) Item CC(C(=O)O)c1ccc(CC2CCCC2=O)cc1 (centres undefined) has what recorded cell viability?
(A) 94.8

* * *

- Test system: U2OS
- methodDescription: cell viability relative to DMSO; higher = less toxic
- experimentalSetup: 72 h; 10 nM
Listed here: items and their measured cell viability.
# value in %; strip the unit string

compound | targetEntity | cell viability (%)
CCOC(=O)C1=C(C)NC(C)=C(C(=O)OCC)C1c1ccccc1/C=C/C(=O)OC(C)(C)C [lacidipine] | U2OS | 95.2
CO[C@H]1/C=C/O[C@@]2(C)Oc3c(C)c(O)c4c(O)c(c(/C=N/N5CCN(C)CC5)c(O)c4c3C2=O)NC(=O)/C(C)=C\C=C\[C@H](C)[C@H](O)[C@@H](C)[C@@H](O)[C@@H](C)[C@H](OC(C)=O)[C@@H]1C [rifampin] | U2OS | 105
C[C@H](c1ccc2ccc(OC3CCC(C(F)(F)F)CC3)c(C(F)(F)F)c2c1)N1C2CCC1CC(C(=O)O)C2 (stereo partly specified) [autotaxin-modulator-1] | U2OS | 95.9
CC(C)n1nccc1-c1ncccc1COc1cccc(O)c1C=O [voxelotor] | U2OS | 97.1
Clc1ccc(Nc2nnc(Cc3ccncc3)c3ccccc23)cc1 [vatalanib] | U2OS | 100
O=C(NCC1CCOCC1)c1cnc(Nc2ccc(Cl)cc2Cl)nc1C(F)(F)F | U2OS | 102

(Q) Requested field: cell viability. Item: Cc1nc(C#Cc2ccnc(Cl)c2)c(C)n1-c1ccc(F)cc1 [basimglurant]
(A) 96.1

(Q) Name the recorded cell viability for CN1C(=O)C[C@@H](C(=O)N[C@@H](Cc2c[nH]cn2)C(=O)N2CCC[C@H]2C(N)=O)NC1=O [taltirelin] .
(A) 96.2

(Q) What value of cell viability has been recorded for this entry: CN[C@@H]1[C@H](O)[C@H](NC)[C@H]2O[C@@]3(O)C(=O)C[C@@H](C)O[C@H]3O[C@@H]2[C@H]1O [spectinomycin]
(A) 107

(Q) Which cell viability reading was recorded for the compound Nc1nccc(-c2c(-c3ccc(F)cc3)ncn2C2CCCCC2)n1 ?
(A) 102

(Q) Report cell viability for CO/N=C(\C(=O)N[C@@H]1C(=O)N2C(C(=O)O)=C(CSc3nc(=O)c(O)nn3C)CS[C@H]12)c1csc(N)n1 [ceftriaxone] please.
(A) 94.2

(Q) Look at this compound and give its reported cell viability. COCC(=O)Nc1c(I)c(C(=O)NCC(O)CO)c(I)c(C(=O)N(C)CC(O)CO)c1I (stereo unspecified) [iopromide]
(A) 101

(Q) Any idea what cell viability was measured for CCOC(=O)[C@@]1(CCCCCCOc2ccc(Cl)cc2)CO1 [etomoxir] ?
(A) 102

(Q) Fill in: cell viability of N#Cc1c(O)c2c(-c3ccc(-c4ccccc4O)cc3)csc2[nH]c1=O is ___
(A) 108

(Q) Please look up its cell viability: CS(=O)(=O)c1ccc(-c2cnc(N)c(C(=O)Nc3ccccc3)n2)cc1 [VE-821]
(A) 95.7

(Q) Name the recorded cell viability for O=C(Cn1c(=O)sc2ccc(Cl)cc21)N1CCN(CCO)CC1 [tiaramide] .
(A) 101
